- Target Or Test System: T1, cynomolgus monkey IL-6 (cynomolgus monkey, UniProt P79341 28-212, limits assumed)
- T1 construct: also called HIS-cyIL-6
- Protocol Summary: SPR; periplasmic fraction; against parental 29B11
Give measured fold improvement KD for each item. Keep answers brief.
Give bare numbers, in fold.

Consider the reported fold improvement KD for these binders:
| Binder | Result Units | Observed Measurement |
| --- | --- | --- |
| Fab 48C10 (Fab, V domains shown, VL-shuffled Fab of 29B11, periplasmic fraction) VH: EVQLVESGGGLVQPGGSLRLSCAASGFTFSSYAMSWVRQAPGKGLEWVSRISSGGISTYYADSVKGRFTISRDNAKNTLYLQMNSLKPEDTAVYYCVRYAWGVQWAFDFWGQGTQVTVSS VL: AQSVLTQPPSVSGSPGQTVTISCAGTSEDVGYGNYVSWYQQLPGMAPKLLIYDVNKRASGIADRFSGSKSGNTASLTISGLQSEDEADYYCASYRRTIDNIFGGGTHLTVLG | fold | 2.71 |
| Fab 55E2 (Fab, V domains shown, VL-shuffled Fab of 29B11, periplasmic fraction; also called 55E2b) VH: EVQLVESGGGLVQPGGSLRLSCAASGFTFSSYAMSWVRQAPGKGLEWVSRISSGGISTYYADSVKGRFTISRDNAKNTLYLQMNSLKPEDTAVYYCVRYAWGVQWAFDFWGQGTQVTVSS VL: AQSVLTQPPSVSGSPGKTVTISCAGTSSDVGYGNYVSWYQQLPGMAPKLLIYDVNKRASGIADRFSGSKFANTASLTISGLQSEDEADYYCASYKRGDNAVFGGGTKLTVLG | fold | 9.22 |
| Fab 55H1 (Fab, V domains shown, VL-shuffled Fab of 29B11, periplasmic fraction; also called 55H1c) VH: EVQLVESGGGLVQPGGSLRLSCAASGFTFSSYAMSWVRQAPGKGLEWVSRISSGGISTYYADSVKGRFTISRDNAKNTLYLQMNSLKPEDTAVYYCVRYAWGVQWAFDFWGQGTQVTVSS VL: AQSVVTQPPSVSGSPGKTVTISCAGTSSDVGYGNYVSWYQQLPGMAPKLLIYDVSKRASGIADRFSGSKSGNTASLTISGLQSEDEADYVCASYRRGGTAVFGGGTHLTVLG | fold | 12.5 |

Kindly consider the entry below.
Query string: # get_value(readout='fold improvement KD', item= Fab 55C1 (Fab, V domains shown, VL-shuffled Fab of 29B11, periplasmic fraction; also called 55C1a) VH: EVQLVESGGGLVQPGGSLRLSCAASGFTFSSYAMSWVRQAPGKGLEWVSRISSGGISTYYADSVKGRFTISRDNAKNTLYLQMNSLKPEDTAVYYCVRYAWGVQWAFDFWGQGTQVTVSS VL: LNFMLTQPPSVSGSPGKTVTISCAGTSSDVGYGNYVSWYQQLPGTAPKLLIYNVNKRASGITDRFSGSKSGNTASLTISGLQSEDEADYYCASYRTGDNAAFGGGTKLTVLG )
Result string: 8.25
